# testName: Neurotoxicity against mouse P19 derived neurons after 18 hrs
# Type: toxicity
Listed here: items and their measured IC50 at 18 h.
readoutType: IC50 at 18 h (µM)

[
  {
    "smilesRecord": "COC1=C2C[C@@H](C)C[C@H](OC)[C@H](O)[C@@H](C)/C=C(\\C)[C@H](OC(N)=O)[C@@H](OC)/C=C\\C=C(/C)C(=O)NC(=CC1=O)C2=O",
    "readoutType": "IC50 at 18 h",
    "readoutQualifier": "=",
    "resultValue": 1.8
  },
  {
    "smilesRecord": "CO[C@H]1/C=C\\C=C(/C)C(=O)NC2=CC(=O)C(OCc3ccccc3)=C(C[C@@H](C)C[C@H](OC)[C@H](O)[C@@H](C)/C=C(\\C)[C@@H]1OC(N)=O)C2=O",
    "readoutType": "IC50 at 18 h",
    "readoutQualifier": ">",
    "resultValue": 10
  },
  {
    "smilesRecord": "COC1=C2C[C@@H](C)C[C@H](OC)[C@H](O)[C@@H](C)/C=C(\\C)[C@H](OC(N)=O)[C@@H](OC)/C=C\\C=C(/C)C(=O)NC(=C(OC)C1=O)C2=O",
    "readoutType": "IC50 at 18 h",
    "readoutQualifier": ">",
    "resultValue": 10
  },
  {
    "smilesRecord": "CCOC1=C2C[C@@H](C)C[C@H](OC)[C@H](O)[C@@H](C)/C=C(\\C)[C@H](OC(N)=O)[C@@H](OC)/C=C\\C=C(/C)C(=O)NC(=CC1=O)C2=O",
    "readoutType": "IC50 at 18 h",
    "readoutQualifier": "=",
    "resultValue": 1.6
  },
  {
    "smilesRecord": "CCCOC1=C2C[C@@H](C)C[C@H](OC)[C@H](O)[C@@H](C)/C=C(\\C)[C@H](OC(N)=O)[C@@H](OC)/C=C\\C=C(/C)C(=O)NC(=CC1=O)C2=O",
    "readoutType": "IC50 at 18 h",
    "readoutQualifier": "=",
    "resultValue": 6.7
  }
]

###

# testName: Neuroprotective activity against paclitaxel-induced toxicity in mouse P19 derived neurons assessed as cell viability at 1 nM
# Assay type: functional
# statedConditions: read-out: Activity
viability at 0.001 µM overview

[
  {
    "molecule": "CO[C@H]1/C=C\\C=C(/C)C(=O)NC2=CC(=O)C(OCc3ccccc3)=C(C[C@@H](C)C[C@H](OC)[C@H](O)[C@@H](C)/C=C(\\C)[C@@H]1OC(N)=O)C2=O",
    "viability at 0.001 µM": "100%"
  },
  {
    "molecule": "COC1=C2C[C@@H](C)C[C@H](OC)[C@H](O)[C@@H](C)/C=C(\\C)[C@H](OC(N)=O)[C@@H](OC)/C=C\\C=C(/C)C(=O)NC(=CC1=O)C2=O [GELDANAMYCIN]",
    "viability at 0.001 µM": "100%"
  },
  {
    "molecule": "CCOC1=C2C[C@@H](C)C[C@H](OC)[C@H](O)[C@@H](C)/C=C(\\C)[C@H](OC(N)=O)[C@@H](OC)/C=C\\C=C(/C)C(=O)NC(=CC1=O)C2=O",
    "viability at 0.001 µM": "100%"
  },
  {
    "molecule": "COC1=C2C[C@@H](C)C[C@H](OC)[C@H](O)[C@@H](C)/C=C(\\C)[C@H](OC(N)=O)[C@@H](OC)/C=C\\C=C(/C)C(=O)NC(=C(OC)C1=O)C2=O",
    "viability at 0.001 µM": "120%"
  },
  {
    "molecule": "CCCOC1=C2C[C@@H](C)C[C@H](OC)[C@H](O)[C@@H](C)/C=C(\\C)[C@H](OC(N)=O)[C@@H](OC)/C=C\\C=C(/C)C(=O)NC(=CC1=O)C2=O",
    "viability at 0.001 µM": "100%"
  }
]

Reference source for all entries: ChEMBL document CHEMBL1139942
